B1: Azoarcus group I ribozyme (parent)
chain: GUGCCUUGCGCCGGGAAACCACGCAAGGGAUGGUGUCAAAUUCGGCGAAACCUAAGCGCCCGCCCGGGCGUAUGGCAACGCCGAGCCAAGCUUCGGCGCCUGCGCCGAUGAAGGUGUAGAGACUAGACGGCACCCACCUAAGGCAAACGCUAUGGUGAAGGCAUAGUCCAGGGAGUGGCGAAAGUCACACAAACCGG

Variants of: B1
test.protocol: reverse-splicing fitness (ratio to wild type); higher = more active; in vitro selection; Mg2+ level not given
quantity: reverse-splicing fitness
Respond using a number only.

// known answers, use as guide
C82G A111C A120C A145C C150U C169G
0.00697
C82G A111G A120G U176A
0.0172
A111C A145G C150A U176A
0.146

Input: May I ask what reverse-splicing fitness has been recorded for C82U A111C A120U C150A C169A U176A ?
Output: 0.00438

Input: May I ask what reverse-splicing fitness has been recorded for A120C A145C C169G U176A ?
Output: 0.0163

Input: May I ask what reverse-splicing fitness has been recorded for A111U A145C C169G U176C ?
Output: 0.0232
